molecular target: TRPV1 receptor (Mus musculus, UniProt Q704Y3); settings: serosal capsaicin 100 nM-100 μM; vagotomized mice; three-parameter logistic fit; read-out: EC50 for capsaicin alone (increase in firing frequency)
Sequence (Q704Y3 whole entry): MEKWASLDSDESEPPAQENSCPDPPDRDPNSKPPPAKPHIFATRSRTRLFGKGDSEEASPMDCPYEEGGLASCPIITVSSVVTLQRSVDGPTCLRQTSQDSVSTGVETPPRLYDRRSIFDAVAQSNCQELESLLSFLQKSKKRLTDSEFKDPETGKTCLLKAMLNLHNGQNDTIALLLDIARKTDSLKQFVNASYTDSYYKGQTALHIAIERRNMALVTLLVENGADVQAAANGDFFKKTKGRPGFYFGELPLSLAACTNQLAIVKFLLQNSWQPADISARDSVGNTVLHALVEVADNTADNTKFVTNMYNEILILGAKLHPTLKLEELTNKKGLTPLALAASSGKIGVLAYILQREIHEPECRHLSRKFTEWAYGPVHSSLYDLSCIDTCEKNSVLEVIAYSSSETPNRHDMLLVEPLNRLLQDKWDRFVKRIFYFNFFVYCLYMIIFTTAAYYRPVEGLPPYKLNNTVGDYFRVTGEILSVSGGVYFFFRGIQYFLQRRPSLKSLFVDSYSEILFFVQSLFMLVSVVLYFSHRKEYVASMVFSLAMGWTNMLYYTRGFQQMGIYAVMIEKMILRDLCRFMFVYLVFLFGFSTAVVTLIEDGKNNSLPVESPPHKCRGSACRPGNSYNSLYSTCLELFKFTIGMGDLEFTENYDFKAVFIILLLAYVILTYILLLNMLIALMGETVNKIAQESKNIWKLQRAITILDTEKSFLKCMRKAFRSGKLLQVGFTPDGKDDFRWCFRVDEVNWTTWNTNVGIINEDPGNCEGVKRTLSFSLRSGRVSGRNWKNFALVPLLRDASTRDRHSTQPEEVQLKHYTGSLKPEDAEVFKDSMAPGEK
Attribute Measured: EC50 (nM)

- Smiles Data: "COc1cc(CNC(=O)CCCC/C=C/C(C)C)ccc1O"
  Measurement Unit: "nM"
  Value Measured: 200
